Recorded measurements of OD value, one per entry
Molecular target: T1, human GPRC5D (G protein-coupled receptor class C group 5 member D), on cells (human, UniProt Q9NZD1 1-345)
T1 construct: whole, on cells; also called hGPRC5D
T1 sequence (Q9NZD1 whole entry): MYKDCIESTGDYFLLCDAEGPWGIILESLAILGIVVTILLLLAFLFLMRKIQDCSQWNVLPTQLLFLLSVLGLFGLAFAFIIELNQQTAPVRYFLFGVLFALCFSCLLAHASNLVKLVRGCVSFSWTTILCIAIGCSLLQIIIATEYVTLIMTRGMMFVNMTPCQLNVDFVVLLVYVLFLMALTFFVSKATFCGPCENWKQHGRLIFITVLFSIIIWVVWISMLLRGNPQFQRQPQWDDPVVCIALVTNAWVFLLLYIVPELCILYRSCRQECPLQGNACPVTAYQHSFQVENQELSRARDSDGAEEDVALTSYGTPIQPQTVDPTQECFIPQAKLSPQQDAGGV
Assay: cell ELISA, hybridoma supernatant on fixed BXPC-3 cells expressing human GPRC5D
Protocol: BXPC-3 cells expressing human GPRC5D (Kyinno, catalog number KC-1717) were prepared into a suspension at concentration of 1×10⁵ cells/ml in PBS containing 2% FBS. The suspension was added to a 96-well plate at 100 μl/well and cultured overnight at 37° C. The wells were cleared of their contents and washed three times with washing solution. […] 2 mol/L H₂SO₄ was added to terminate the reaction, and the OD value was read on an enzyme-linked immunosorbent reader.
Form entry: value (OD) — number only.

Here are 2 binders together with their reported answers.
binder: murine antibody 24F5 (A3 antibody) (antibody, V domains shown, Tested as hybridoma cell culture supernatant; also called murine anti-24F5) VH: QVQLKESGPELVKPGASVKISCKASGYTFPYYVMHWVKQKPGQGLEWIGYINPYNDGTKYNEKFKGKAALTSDKSSSTAYMDLSSLTSEDSAVYYCARGGVRRYFDYWGQGTTLTVSS VL: DIQMTQTPSSLSASLGERVSLTCRASQDIGSNLNWLQQEPDGTIKRLIYATSSLDSGVPKRFSGSRSGSDYSLTISSLESEDFVDYYCLQYATFPYTFGGGTKLEIK
OD value [OD]: 1.54

binder: murine antibody 26D1 (A2 antibody) (antibody, V domains shown, Tested as hybridoma cell culture supernatant; also called murine anti-26D1) VH: QVQLKQSGAELAGPGASVKMSCKASGYTFTSYTIQWIKQRPGQGLEWIGYIIPSSGYTNYNQKFKDKATLTADKSSNTAYMQLSSLTSEDSAVYYCANNYGNWGFTYWGQGTLVTVSA VL: DILMTQSQKFMSTSVRDRVSISCKASQNVGSAVTWYQQKPGQSPRLLIYSASNRYTGVPDRFTGSGSGTDFTLTISNVQSEDLADYFCQQYSNYPLTFGGGTKLEIK
OD value [OD]: 0.871

The binder identified as murine antibody 6E97 (A4 antibody) (antibody, V domains shown, Tested as hybridoma cell culture supernatant; also called murine anti-6E97) VH: QVQLKESGPELVKPGASVKISCKASGYTFPYYVIHWVKQKPGQGLEWIGYINPYNDGTKYNEKFKGKAALTSDKSSSTAYMELSSLTSEDSAVYYCARGGVRRYFDYWGQGTTLTVSS VL: QIVLTQSPSSLSASLGERVSLTCRASQDIGSNLNWLQQEPDGTIKRLISATSSLDSGVPKRFSGSRSGSDYSLTISSLESEDFVDYFCLQYATFPYTFGGGTKLEIK registered its OD value at 1.55

The binder identified as murine antibody 9D7 (A1 antibody) (antibody, V domains shown, Tested as hybridoma cell culture supernatant; also called murine anti-9D7) VH: QVQLKESGPGLVKPSQSLSLTCTVTGYSITSDYAWNWIRQFPGNKLEWMGYISYSGSATYNPSLKSRISITRDTSKNQFFLQLNSMTTEDTATYYCARGGIAGRGRWGAMDYWGQGTSVTVSS VL: DIVMTQAQKFMSTSVGDRVSVTCKASQNVGTNVAWYQNKPGQSPKALIYSASYRDSGVPDRFTGRGSGTDFTLTISNVQSEDLAEYFCQQYKSYPLTFGAGTKLELK registered its OD value at 0.541
